// reported growth inhibition per item
Experiment: NCI Yeast Anticancer Drug Screen. Data for the rad50 strain (AID 155);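 also: 0% = growth of vehicle-only cultures of the same strain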
Conditions: S. cerevisiae rad50 strain growth inhibition; at 50.0 µM; hits give high values
Compounds without any hit were thinned out: in the full panel of roughly 79,000, 15% have a hit.

molecule: CC1=C(CC/C(C)=C/CCC2(C)CCC([C@H](C)C(=O)O)OO2)C(C)(C)CCC1 (some centres not stated) (tested in a mixture with another compound)
growth inhibition, %: 90.2

molecule: O=C(OCC(CCl)OC(=O)C(Cl)(Cl)Cl)C(Cl)(Cl)Cl (configuration not stated)
growth inhibition, %: 52.2

molecule: CC1(Cl)CC2C(CC1Sc1nnnn1-c1ccccc1)C2(C)C (configuration not stated)
growth inhibition, %: -7.45

molecule: Cc1ccc(NP(=S)(Nc2ccc(C)cc2C)Nc2ccc(C)cc2C)c(C)c1
growth inhibition, %: 18.3

molecule: CN1CCC2(CC1)c1ccccc1-c1ccccc12
growth inhibition, %: -7.7

molecule: Cc1ccc(S(=O)(=O)CC([Se]C#N)c2ccccc2)cc1 (configuration not stated)
growth inhibition, %: -21.1

molecule: [C-]#[O+].[C-]#[O+].[C-]#[O+].[C-]#[O+].[Mo].c1cnc2c(c1)ccc1cccnc12
growth inhibition, %: 81

molecule: CC(=O)c1cc(CN(CCCl)CCCl)c(O)c(CN(CCCl)CCCl)c1O
growth inhibition, %: 90.5

molecule: C(#Cc1ccccc1)c1ccccc1
growth inhibition, %: 29.1

molecule: C=CCc1cc(Cl)ccc1OC(=O)N(C)C
growth inhibition, %: -7.75

molecule: Cc1ccc2[nH]c(=S)n(-c3ccc(Cl)cc3)c(=O)c2c1
growth inhibition, %: 9.3

molecule: COc1ccc2c3c1OC1C(C)(O)C(O)CC4C(C2)N(C)CCC341 (configuration not stated)
growth inhibition, %: -3.55

molecule: SCc1c(Cl)c(Cl)c(Cl)c(Cl)c1Cl.[Hg]
growth inhibition, %: -7.65

molecule: C1CN1[PH+](N1CC1)N1CC1.C1CN1[PH+](N1CC1)N1CC1.[I][Pt][I]
growth inhibition, %: 66.5

molecule: C[C@H]1C(=O)O[C@@H]2CCN3CC=C(COC(=O)[C@](C)(O)[C@@]1(C)O)[C@H]23
growth inhibition, %: -4.7

molecule: O=P(O)(OCCc1ccccc1)Oc1ccccc1O
growth inhibition, %: -6.05

molecule: O=C1SCCC1NP(=O)(Oc1ccccc1)Oc1ccccc1 (configuration not stated)
growth inhibition, %: 5.35

molecule: CC[PH+](CC)CC[S-].CC[PH+](CC)CC[S-].[Au+].[Au+]
growth inhibition, %: 46.4

molecule: [Se]=[Nb]=[Se]
growth inhibition, %: -5.8

molecule: CC(C)OP(=O)(OC(C)C)C(=O)Nc1cc(Cl)ccc1Cl
growth inhibition, %: -23.5

molecule: CN(C1CCCCC1)C1CCCCC1
growth inhibition, %: -7.75

molecule: COC1CCCC2OC3(OC)C(OC)CCCC3OC12OC (configuration not stated)
growth inhibition, %: 12.2

molecule: CN1C2C=CC1c1c(C3=NC(C)(C)CO3)cccc12 (configuration not stated)
growth inhibition, %: -8.15

molecule: IC(I)=C(I)I
growth inhibition, %: 88.5

molecule: N#Cc1ccncc1
growth inhibition, %: 22.3

molecule: ClCCCCCCCCCCCl
growth inhibition, %: 10.9

molecule: COC(=O)C1ON(c2ccccc2)C2c3ccccc3-c3ccccc3C12 (configuration not stated)
growth inhibition, %: 58.2

molecule: CCCCCCNC(=O)CCl
growth inhibition, %: 6.5

molecule: S=c1[nH]c2ccccc2s1.[Pb]
growth inhibition, %: 93.7

molecule: COP(=O)(OC)C1(C(C)(C)C)CO1 (configuration not stated)
growth inhibition, %: -1.75

molecule: CCOP(=O)(NC12CC3CC(CC(C3)C1)C2)OCC
growth inhibition, %: -1.5

molecule: O=C(CCl)Oc1ccccc1Cl
growth inhibition, %: -19.5

molecule: CN(C)c1ccc(N=Nc2cccc(C(=O)[O-])c2)cc1.CN(C)c1ccc(N=Nc2cccc(C(=O)[O-])c2)cc1.NC1CCCCC1N.[Pt+4]
growth inhibition, %: -13.4

molecule: O=C(CC(=O)C(F)(F)C(F)(F)C(F)(F)F)c1ccco1.[Ni]
growth inhibition, %: 17.2

molecule: CN(C/C=C/CN(C)N=O)N=O
growth inhibition, %: 10.1

molecule: N#CN(Cc1ccccc1)C(c1ccccc1)(c1ccccc1)c1ccccc1.[I][Sn]([c]1ccccc1)([c]1ccccc1)[c]1ccccc1
growth inhibition, %: 98.8

molecule: O=C(O)c1ccccc1O.[Cu]
growth inhibition, %: -31.2

molecule: COC(=O)c1nc(-c2ccc3c(n2)C(=O)C(N)=C(OC)C3=O)c(N)c(-c2ccc(OC)c(OC)c2O)c1C
growth inhibition, %: 58

molecule: CN(C)CCN=C(N)N[N+](=O)[O-]
growth inhibition, %: 1.35

molecule: Cc1nccn1-c1ccc(Cl)cc1N=Cc1ccc(N(CCCl)CCCl)cc1Cl
growth inhibition, %: 38.4

molecule: CC/C(=C/c1ccc(OC)cc1OC)[N+](=O)[O-]
growth inhibition, %: 99.4

molecule: C[N+](C)(C)Cc1cccc([N+](=O)[O-])c1
growth inhibition, %: -47.9

molecule: S=P(c1ccccc1)(N1CCOCC1)N1CCOCC1
growth inhibition, %: 7.8

molecule: O=C(NCCN1CCOCC1)c1ccc2cc(C(=O)N3CC(CCl)c4ccc([N+](=O)[O-])cc43)[nH]c2c1 (configuration not stated)
growth inhibition, %: 88.5

molecule: CC(CN1CCCCCC1)C(C#N)(c1ccccc1)c1ccccc1 (configuration not stated)
growth inhibition, %: 7.4

molecule: CCc1c[c]([Hg][Cl])c(CC)c(CC)c1CC
growth inhibition, %: 99.4

molecule: OCCN=Cc1ccccc1O.OCCN=Cc1ccccc1O.[Ni]
growth inhibition, %: 32.2
